The measurements presented in this section are drawn from the RNAGym collection of RNA variant scans (doi:10.1093/molbev/msab373).

B1: Azoarcus group I ribozyme (parent)
chain: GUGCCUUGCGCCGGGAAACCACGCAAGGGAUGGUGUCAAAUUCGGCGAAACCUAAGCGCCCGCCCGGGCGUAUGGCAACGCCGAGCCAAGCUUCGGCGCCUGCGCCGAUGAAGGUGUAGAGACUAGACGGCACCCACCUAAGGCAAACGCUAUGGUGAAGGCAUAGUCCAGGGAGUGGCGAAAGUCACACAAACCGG

# Variants of: B1
# ASSAY TEXT: reverse-splicing fitness (ratio to wild type); higher = more active; in vitro selection; Mg2+ level not given
I'd be grateful if you could share measured reverse-splicing fitness for these entries.
API doc: respond with a numeric literal and nothing else, no unit.

The reported reverse-splicing fitness of the variant C82G A145C C169U U176G was 0.00465

Input C82U A111G A120U A145G C150U . Output reverse-splicing fitness: 0.0339

Field reverse-splicing fitness (entry C82U A111U A120G C150A C169A ) reads 0.0103

reverse-splicing fitness for C82G A111G A120C A145G C150G U176A is 0.00724

variant C82A A111U A120C A145U C150A C169U U176G , reverse-splicing fitness observed: 0.00856

Lab book: reverse-splicing fitness of C82A A120U C150U C169G U176G noted as 0.00165

Recorded reverse-splicing fitness (variant C82U A120U C150A C169G ): 0.00313

Noted for C82A A120C A145G C150A U176G : its reverse-splicing fitness reads 0.00982

response.value for C82U A111G A120C A145G C150U C169G U176A (field: reverse-splicing fitness) = 0.0191

The reported value for C82U A120U A145U C150A C169G U176G in terms of reverse-splicing fitness is 0.00147

// sample C82A A111C A120G A145U U176G , its reverse-splicing fitness was 0.00466

Looking up C82A A111C A120G A145G C150U C169A , I see its reverse-splicing fitness listed as 0.0111

Looking up A111G A120U A145U C150A U176A , I see its reverse-splicing fitness listed as 0.0447

reverse-splicing fitness recorded for this variant, C82G A120U A145G C150G C169A U176A , is 0.012

For reference, reported reverse-splicing fitness for C82G A111U A120G A145U C150G U176G stands at 0.0039

# variant C82A A120U A145U C150A C169U U176G ; its reverse-splicing fitness = 0.00196

The variant identified as A120U C150G C169G U176C registered its reverse-splicing fitness at 0.0024

So for C82A A111C A145C U176C , the logged reverse-splicing fitness turned out to be 0.0878

Documented reverse-splicing fitness of C82U A111C A145C C150U C169G U176A : 0.0257

Entry under test: C82A A111U A120U A145U C150A C169U . Its reverse-splicing fitness was 0.00298

Summary for this variant, C82A A111C A120C A145C C150U C169A : reverse-splicing fitness is 0.0105

For record C82U A145U C150G C169G the listed reverse-splicing fitness is 0.00717
